Where do the numbers come from? From PubChem BioAssay (EPA / NIEHS).

read-out: Thrombomodulin, THBD (gene 7056); assay: BSK_CASM3C_Thrombomodulin: BioMAP Diversity Plus: CASM3C Assay for Thrombomodulin Biomarker Activity (AID 2283051); settings: primary human coronary artery smooth muscle cells; actives raise or lower the signal;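 further: thrombomodulin protein level measured by ELISA 24 h after dosing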
Active and inactive are the calls of the source. How the source made its calls: active means hit-call score of the fitted dose curve at least 0.9, where 1 is the maximum; inactive means score below 0.9.
Classes used: Yes (active), No (inactive)

{"MOLECULE": "CC(C)Oc1cccc(NC(=O)c2ccccc2C(F)(F)F)c1", "QUALITATIVE_LABEL": "No"}
{"MOLECULE": "Cc1cc(C)nc(Nc2ccccc2)n1", "QUALITATIVE_LABEL": "No"}
{"MOLECULE": "COCC(C)N(C(=O)CCl)c1c(C)csc1C (centres undefined)", "QUALITATIVE_LABEL": "No"}
{"MOLECULE": "CCNP(=S)(OC)O/C(C)=C/C(=O)OC(C)C (centres undefined)", "QUALITATIVE_LABEL": "No"}
{"MOLECULE": "CC(C)Nc1nc(Cl)nc(NC(C)C)n1", "QUALITATIVE_LABEL": "No"}
{"MOLECULE": "COC(=O)c1c(C(F)F)nc(C(F)(F)F)c(C2=NCCS2)c1CC(C)C", "QUALITATIVE_LABEL": "Yes"}
{"MOLECULE": "C=CCOC(=O)C(C)(C)OC(=O)c1cc(-n2c(=O)cc(C(F)(F)F)n(C)c2=O)ccc1Cl", "QUALITATIVE_LABEL": "No"}
{"MOLECULE": "CC(C)(C)C(=O)C(Oc1ccc(Cl)cc1)n1cncn1 (centres undefined)", "QUALITATIVE_LABEL": "No"}
{"MOLECULE": "N#CN=C1SCCN1Cc1ccc(Cl)nc1", "QUALITATIVE_LABEL": "No"}
{"MOLECULE": "CC(C)N1C(=O)N(c2ccccc2)CSC1=NC(C)(C)C", "QUALITATIVE_LABEL": "Yes"}
{"MOLECULE": "CCOC(=O)C(C)OC(=O)c1cc(Oc2ccc(C(F)(F)F)cc2Cl)ccc1[N+](=O)[O-] (centres undefined)", "QUALITATIVE_LABEL": "No"}
{"MOLECULE": "CC1(C)CCC(=Cc2ccc(Cl)cc2)C1(O)Cn1cncn1 (centres undefined)", "QUALITATIVE_LABEL": "No"}
{"MOLECULE": "CO/N=C(/C1=NOCCO1)c1ccccc1Oc1ncnc(Oc2ccccc2Cl)c1F", "QUALITATIVE_LABEL": "No"}
{"MOLECULE": "CCOc1nc(C(Cl)(Cl)Cl)ns1", "QUALITATIVE_LABEL": "No"}
{"MOLECULE": "CC(C)N1C(=O)c2ccccc2NS1(=O)=O", "QUALITATIVE_LABEL": "No"}
{"MOLECULE": "Cn1c(-c2ccccc2)cc(-c2ccccc2)[n+]1C", "QUALITATIVE_LABEL": "No"}
{"MOLECULE": "Clc1nc(Cl)nc(Nc2ccccc2Cl)n1", "QUALITATIVE_LABEL": "No"}
{"MOLECULE": "COCC(=O)N(c1c(C)cccc1C)C(C)C(=O)OC (centres undefined)", "QUALITATIVE_LABEL": "No"}
{"MOLECULE": "CC(C)C1(C)N=C(c2ncccc2C(=O)O)NC1=O (centres undefined)", "QUALITATIVE_LABEL": "No"}
{"MOLECULE": "CCN(CC)c1nc(C)cc(OP(=S)(OC)OC)n1", "QUALITATIVE_LABEL": "Yes"}
{"MOLECULE": "CS(=O)(=O)c1ccc(C(=O)C2C(=O)CCCC2=O)c([N+](=O)[O-])c1", "QUALITATIVE_LABEL": "No"}
{"MOLECULE": "COc1ccc(-c2ccccc2)cc1NNC(=O)OC(C)C", "QUALITATIVE_LABEL": "No"}
{"MOLECULE": "CC(C)=CC1C(C(=O)OCc2coc(Cc3ccccc3)c2)C1(C)C (centres undefined)", "QUALITATIVE_LABEL": "Yes"}
{"MOLECULE": "COC(=O)NS(=O)(=O)c1ccc(N)cc1", "QUALITATIVE_LABEL": "No"}
